protocol: chemical genetic growth profiling, strain panel (AID 1159580);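 note: tested at 20 µM; growth read once vehicle control cultures reached saturation at 30 °C; 1 = growth at the plate median or of vehicle wells; lower values mean less growth of the strain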
setupConditions: S. cerevisiae deletion strains, growth OD, locus YLR418C, strain cdc73, active compounds read low
In all, about 5,500 compounds went through this assay and about 2,000 (36%) were called active. About 18% were inconclusive and are not listed. The list shows a part of the results.
readoutName: normalized growth

{"chemicalSmiles": "CCCCC1C(=O)N(c2ccccc2)N(c2ccccc2)C1=O", "measuredResult": "0.995 (inactive)"}
{"chemicalSmiles": "CCCCCCCCCc1ccc(O)cc1", "measuredResult": "0.323 (active)"}
{"chemicalSmiles": "CCCCCCc1ccc(O)cc1O", "measuredResult": "0.767 (active)"}
{"chemicalSmiles": "NCCc1ccc(O)c(O)c1", "measuredResult": "0.999 (inactive)"}
